The measurements presented in this section are drawn from paper PMC5917092.

experimental target: TtCBH7 (Thermothelomyces thermophilus, UniProt G2Q665)
Sequence (G2Q665 entry or part of it): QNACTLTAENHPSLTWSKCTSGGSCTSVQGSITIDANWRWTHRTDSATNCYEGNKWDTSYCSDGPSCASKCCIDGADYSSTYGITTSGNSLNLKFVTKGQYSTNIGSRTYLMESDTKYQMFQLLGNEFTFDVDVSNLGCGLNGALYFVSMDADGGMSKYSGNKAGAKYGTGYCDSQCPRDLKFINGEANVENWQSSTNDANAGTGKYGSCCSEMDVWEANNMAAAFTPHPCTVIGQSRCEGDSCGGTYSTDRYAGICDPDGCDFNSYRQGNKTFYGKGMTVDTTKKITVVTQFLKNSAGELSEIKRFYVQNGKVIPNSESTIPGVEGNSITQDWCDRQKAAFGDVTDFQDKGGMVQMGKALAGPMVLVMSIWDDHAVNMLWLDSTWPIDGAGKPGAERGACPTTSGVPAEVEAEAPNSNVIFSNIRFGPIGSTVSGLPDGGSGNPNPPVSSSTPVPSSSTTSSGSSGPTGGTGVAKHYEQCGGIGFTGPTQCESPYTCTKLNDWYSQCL
test name: Kinetics and inhibition of TtCBH7 by mono/oligosaccharides with MUG2 as substrate (Lineweaver-Burk)
Assay type: biochemical, Thermothelomyces thermophila
test context: TtCBH7, substrate MUG2, inhibitor 10 mM
Listed here: items and their measured pKi.
The value called pKi is obtained by taking minus log10 of the concentration in mol/L.

Worked examples, 2 compounds total:
- compound: "OC[C@H]1OC(O)[C@H](O)[C@@H](O)[C@@H]1O (stereo partly drawn) [Glucose, glucose]"
  pKi: 1.88
- compound: "O=C[C@H](O)[C@@H](O)[C@H](O[C@@H]1O[C@H](CO)[C@@H](O)[C@H](O)[C@H]1O)[C@H](O)CO [Cellobiose, cellobiose]"
  pKi: 2.80

# evaluate next
**Q:** Give pKi for OC1OC[C@@H](O[C@@H]2OC[C@@H](O)[C@H](O)[C@H]2O)[C@H](O)[C@H]1O (stereo partly drawn) [Xylobiose, xylobiose]
**A:** 1.48

###

Listed here: items and their measured Kmapp.
experimental target: TtCBH7 (Thermothelomyces thermophilus, UniProt G2Q665)
test name: Kinetics and inhibition of TtCBH7 by mono/oligosaccharides with MUG2 as substrate (Lineweaver-Burk)
Type: biochemical, Thermothelomyces thermophila
test context: TtCBH7, substrate MUG2, in the presence of 10 mM inhibitor
Please reply with the bare figure in mM and do not write the unit itself.

Worked examples, 3 molecules total:
- molecule: "OC[C@H]1O[C@@H](O[C@H]2[C@H](O)[C@H](O)C(O)O[C@@H]2CO)[C@@H](O)[C@@H](O)[C@@H]1O (stereo partly shown) [Mannobiose, mannobiose]"
  Kmapp [mM]: 1.04
- molecule: "O=C[C@H](O)[C@@H](O)[C@H](O[C@@H]1O[C@H](CO)[C@@H](O)[C@H](O)[C@H]1O)[C@H](O)CO [Cellobiose, cellobiose]"
  Kmapp [mM]: 6.54
- molecule: "OC[C@H]1OC(O)[C@H](O)[C@@H](O)[C@@H]1O (stereo partly shown) [Glucose, glucose]"
  Kmapp [mM]: 1.58

# evaluate next
**Q:** Give Kmapp for OC1OC[C@@H](O[C@@H]2OC[C@@H](O)[C@H](O)[C@H]2O)[C@H](O)[C@H]1O (stereo partly shown) [Xylobiose, xylobiose]
**A:** 1.17

###

experimental target: TtCBH7 (Thermothelomyces thermophilus)
test name: Kinetics and inhibition of TtCBH7 by mono/oligosaccharides with MUG2 as substrate (Lineweaver-Burk)
Type: biochemical, Thermothelomyces thermophila
test context: TtCBH7, substrate MUG2, inhibitor 10 mM (Km app)
# binarize Km/Km^app: threshold 1 µM inclusive, high side yes, low side no

Take a look at these entries with their results.
- molecule: "OC[C@H]1O[C@@H](O[C@H]2[C@H](O)[C@H](O)C(O)O[C@@H]2CO)[C@@H](O)[C@@H](O)[C@@H]1O (some centres unmarked)"
  category label: "yes"
- molecule: "OC[C@H]1OC(O)[C@H](O)[C@@H](O)[C@@H]1O (some centres unmarked)"
  category label: "yes"
- molecule: "OC1OC[C@@H](O[C@@H]2OC[C@@H](O[C@@H]3OC[C@@H](O)[C@H](O)[C@H]3O)[C@H](O)[C@H]2O)[C@H](O)[C@H]1O (some centres unmarked)"
  category label: "no"

**Q:** Hello, I need to know if OC1OC[C@@H](O[C@@H]2OC[C@@H](O)[C@H](O)[C@H]2O)[C@H](O)[C@H]1O (some centres unmarked) has measured Km/Km^app not below 1 µM. Thanks!
**A:** yes

**Q:** Hello, I need to know if "O=C[C@H](O)[C@@H](O)[C@H](O[C@@H]1O[C@H](CO)[C@@H](O)[C@H](O)[C@H]1O)[C@H](O)CO" has measured Km/Km^app not below 1 µM. Thanks!
**A:** yes
